Values from patent US20230365662A1

We begin with a simple list: items and their reported Ratio OD(Variant)/OD(WT).
Target: HRgpA-6H (Porphyromonas gingivalis) (UniProt P28784)
Assay: ELISA, FASEBA Fab on coated HRgpA-6H
Output: the number by itself.

The cases that follow already have their Ratio OD(Variant)/OD(WT) on record.
KB001 mouse Fab VL T100R (Fab, V domains shown) VH: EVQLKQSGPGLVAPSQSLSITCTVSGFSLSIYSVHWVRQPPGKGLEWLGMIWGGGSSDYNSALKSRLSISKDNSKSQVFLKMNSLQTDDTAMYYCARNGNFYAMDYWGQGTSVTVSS VL: QIVLTQSPAIMSASLGERVTMTCTASSSVSSSFLHWYQQKPGSSPQLWIYSTSNLASGVPARFSGSGSGTSYSLTISSMEAEDAATYYCHQYHHSPYIYRFGGGTKLEIK : 1.18
KB001 mouse Fab VL N54W (Fab, V domains shown) VH: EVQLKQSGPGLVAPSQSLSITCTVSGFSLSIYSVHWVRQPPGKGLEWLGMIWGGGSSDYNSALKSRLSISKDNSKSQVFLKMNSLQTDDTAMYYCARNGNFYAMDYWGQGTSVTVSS VL: QIVLTQSPAIMSASLGERVTMTCTASSSVSSSFLHWYQQKPGSSPQLWIYSTSWLASGVPARFSGSGSGTSYSLTISSMEAEDAATYYCHQYHHSPYIYTFGGGTKLEIK : 0.825

The record that follows has no Ratio OD(Variant)/OD(WT) shown yet.
What value of Ratio OD(Variant)/OD(WT) has been reported for the following binder? KB001 mouse Fab VL T100D (Fab, V domains shown) VH: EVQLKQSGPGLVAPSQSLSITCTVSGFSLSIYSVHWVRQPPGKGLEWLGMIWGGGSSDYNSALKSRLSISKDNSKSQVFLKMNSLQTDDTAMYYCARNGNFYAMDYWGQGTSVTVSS VL: QIVLTQSPAIMSASLGERVTMTCTASSSVSSSFLHWYQQKPGSSPQLWIYSTSNLASGVPARFSGSGSGTSYSLTISSMEAEDAATYYCHQYHHSPYIYDFGGGTKLEIK
1.23
